List of Kd values.
- Test system: oligoribonucleotide 3 (biotinylated truncated pre-miR-21) (RNA, miRNA) CCGACUGAUGUUGACUGUUGAAUCUCAUGGCAACACCAGUCGG
- test details: SPR steady state
- experimental conditions: 80 mM NaCl, 100 mM total Na+; 20 mM sodium cacodylate, pH 7.2; equivalent affinity for all sites; per site
measure: Kd (µM)

structure as smiles	measure	unit label	measured number
NC[C@H]1O[C@H](O[C@H]2[C@H](O)[C@@H](O[C@H]3O[C@H](CO)[C@@H](O)[C@H](N)[C@H]3O)[C@H](N)C[C@@H]2N)[C@H](O)[C@@H](O)[C@@H]1O	Kd	µM	44
CCN[C@@H]1C[C@H](N)[C@@H](O[C@H]2OC(CN)=CC[C@H]2N)[C@H](O)[C@H]1O[C@H]1OC[C@](C)(O)[C@H](NC)[C@H]1O	Kd	µM	28
CN[C@@H]1[C@@H](O[C@H]2O[C@H](CO)[C@@H](N)[C@H](O)[C@H]2O)O[C@H]2C[C@@H](N)[C@@H](O[C@H]3[C@H](O)[C@@H](O)[C@H](N)C[C@@H]3N)O[C@@H]2[C@@H]1O	Kd	µM	22
NC[C@H]1O[C@H](O[C@H]2[C@H](O[C@@H]3O[C@H](CO)[C@@H](O)[C@H]3O)[C@@H](O)[C@H](N)C[C@@H]2N)[C@H](N)[C@@H](O)[C@@H]1O	Kd	µM	90
NC[C@@H]1O[C@H](O[C@H]2[C@@H](O)[C@H](O[C@@H]3[C@@H](O)[C@H](N)C[C@H](N)[C@H]3O[C@H]3O[C@H](CN)[C@@H](O)[C@H](O)[C@H]3N)O[C@@H]2CO)[C@H](N)[C@@H](O)[C@@H]1O	Kd	µM	3.9
CN[C@@H]1[C@H](O[C@H]2[C@H](O[C@H]3[C@H](O)[C@@H](O)[C@H](N=C(N)N)[C@@H](O)[C@@H]3N=C(N)N)O[C@@H](C)[C@]2(O)C=O)O[C@@H](CO)[C@H](O)[C@H]1O	Kd	µM	134
NCC[C@H](O)C(=O)N[C@@H]1C[C@H](N)[C@@H](O[C@H]2O[C@H](CN)[C@@H](O)[C@H](O)[C@H]2O)[C@H](O)[C@H]1O[C@H]1O[C@H](CO)[C@@H](O)[C@H](N)[C@H]1O	Kd	µM	15
CN[C@@H]1[C@@H](O)[C@@H](O[C@@H]2[C@@H](O)[C@H](O[C@H]3O[C@H]([C@@H](C)O)[C@@H](O)[C@H](O)[C@H]3N)[C@@H](N)C[C@H]2N)OC[C@]1(C)O	Kd	µM	101
NC[C@H]1O[C@H](O[C@H]2[C@H](O)[C@@H](O[C@H]3O[C@H](CO)[C@@H](O)[C@H](N)[C@H]3O)[C@H](N)C[C@@H]2N)[C@H](N)C[C@@H]1O	Kd	µM	8
CN[C@@H]1[C@@H](O)[C@@H](O[C@@H]2[C@@H](O)[C@H](O[C@H]3OC(CN)=CC[C@H]3N)[C@@H](N)C[C@H]2N)OC[C@]1(C)O	Kd	µM	4

* * *

List of Kd values.
- Tested on: oligoribonucleotide 4 (biotinylated FRET-pair truncated pre-miR-21) (RNA, miRNA, tC^O (cytosine analogue, donor) at 15; tCnitro (cytosine analogue, acceptor) at 24) CCGACUGAUGUUGACUGUUGAAUCUCAUGGCAACACCAGUCGG
- test details: SPR steady state
- experimental conditions: 80 mM NaCl, 100 mM total Na+; 20 mM sodium cacodylate, pH 7.2; equivalent affinity for all sites; per site

structure as smiles	Kd, µM
CN[C@@H]1[C@H](O[C@H]2[C@H](O[C@H]3[C@H](O)[C@@H](O)[C@H](N=C(N)N)[C@@H](O)[C@@H]3N=C(N)N)O[C@@H](C)[C@]2(O)C=O)O[C@@H](CO)[C@H](O)[C@H]1O	115
CCN[C@@H]1C[C@H](N)[C@@H](O[C@H]2OC(CN)=CC[C@H]2N)[C@H](O)[C@H]1O[C@H]1OC[C@](C)(O)[C@H](NC)[C@H]1O	27
CN[C@@H]1[C@@H](O[C@H]2O[C@H](CO)[C@@H](N)[C@H](O)[C@H]2O)O[C@H]2C[C@@H](N)[C@@H](O[C@H]3[C@H](O)[C@@H](O)[C@H](N)C[C@@H]3N)O[C@@H]2[C@@H]1O	23
NC[C@@H]1O[C@H](O[C@H]2[C@@H](O)[C@H](O[C@@H]3[C@@H](O)[C@H](N)C[C@H](N)[C@H]3O[C@H]3O[C@H](CN)[C@@H](O)[C@H](O)[C@H]3N)O[C@@H]2CO)[C@H](N)[C@@H](O)[C@@H]1O	2.7
CN[C@@H]1[C@@H](O)[C@@H](O[C@@H]2[C@@H](O)[C@H](O[C@H]3OC(CN)=CC[C@H]3N)[C@@H](N)C[C@H]2N)OC[C@]1(C)O	4

Reference source: paper PMC8087795
